# System: rabbit apolipoprotein B mRNA
# METHOD_DESCRIPTION: Inhibition of rabbit apolipoprotein B mRNA levels in primary rabbit hepatocytes, real-time PCR
# Assay type: cell-based
# STUDY_CONDITIONS: 10 nM, averages from two experiments
# Excerpt: Primary rabbit hepatocytes were purchased from Invitro Technologies (Gaithersburg, Md.) and maintained in Dulbecco's modified Eagle's medium (Gibco). When purchased, the cells had been seeded into 96-well plates for use in RT-PCR analysis and were confluent. […]
In the oligonucleotide strings, read from the 5' end, every base follows the letter of its sugar. An asterisk marks phosphorothioate; unmarked linkages are phosphodiester. Other units and linkages are bracketed, terminal groups are in braces. A string of capitals states the bases alone. e = 2'-O-(2-methoxyethyl) (MOE); [5mC] = 5-methylcytosine; d = 2'-deoxy (DNA)
Record form. Attribute: Percent Inhibition of rabbit apolipoprotein B mRNA levels. Fill in for each entry.
Answer with a number only, understood to be in %.

Q: Fill in Percent Inhibition of rabbit apolipoprotein B mRNA levels for record 233175 (antisense eG*eA*e[5mC]*e[5mC]*eT*dT*dG*dA*dG*dT*dA*dG*dA*dT*dT*e[5mC]*e[5mC]*eT*eG*eG) [compound 233175]
A: 67

Q: Fill in Percent Inhibition of rabbit apolipoprotein B mRNA levels for record 233160 (antisense eA*eT*eT*eG*eG*dA*dA*dT*dA*dA*dT*dG*dT*dA*dT*e[5mC]*e[5mC]*eA*eG*eG) [compound 233160]
A: 33

Q: Fill in Percent Inhibition of rabbit apolipoprotein B mRNA levels for record 233166 (antisense eG*eG*eA*eT*e[5mC]*dA*d[5mC]*dA*dT*dG*dA*d[5mC]*dT*dG*dA*eA*eT*eG*e[5mC]*eT) [compound 233166]
A: 66

Q: Fill in Percent Inhibition of rabbit apolipoprotein B mRNA levels for record 233172 (antisense eA*eT*eG*eG*eA*dA*dG*dA*d[5mC]*dT*dG*dG*d[5mC]*dA*dG*e[5mC]*eT*e[5mC]*eT*eA) [compound 233172]
A: 60

meta.source: patent US7803930B2
